Cited source: PubChem BioAssay AID1963966

Test system: 935938-334-R-J1-PDC spheroids with HUVEC/MSC, viability
Assay: Anticancer human tumor 935938-334-R-J1-PDC patient-derived small intestine adenocarcinoma cell line growth inhibition [PI3K]
Settings: second compound 1 µM; first compound 0.001 µM; stronger effect = lower value
viability, T/C overview
Give just the number in %; leave the unit off.

# molecule, output-unit, observed
records = [
    ("Cn1ncnc1[C@H]1c2n[nH]c(=O)c3cc(F)cc(c23)N[C@@H]1c1ccc(F)cc1 + CC(Nc1ccc2c(c1)OCCn1cc(N3C(=O)OCC3C(F)F)nc1-2)C(N)=O", "%", 72),
    ("CC(=O)c1c(C)c2cnc(Nc3ccc(N4CCNCC4)cn3)nc2n(C2CCCC2)c1=O + COc1c(OCCCN2CCOCC2)ccc2c3n(c(=NC(=O)c4cnc(N)nc4)nc12)CCN3", "%", 35.2),
    ("CC(=O)c1c(C)c2cnc(Nc3ccc(N4CCNCC4)cn3)nc2n(C2CCCC2)c1=O + CC(Nc1ccc2c(c1)OCCn1cc(N3C(=O)OCC3C(F)F)nc1-2)C(N)=O", "%", 57.5),
    ("CC(C)n1nc(-c2ccc3oc(N)nc3c2)c2c(N)ncnc21 + Cc1nc(NC(=O)N2CCCC2C(N)=O)sc1-c1ccnc(C(C)(C)C(F)(F)F)c1", "%", 74.3),
    ("CC(C)n1nc(-c2ccc3oc(N)nc3c2)c2c(N)ncnc21 + CC(Nc1ccc2c(c1)OCCn1cc(N3C(=O)OCC3C(F)F)nc1-2)C(N)=O", "%", 63.5),
]

(Q) Answer with the recorded viability, T/C of Cn1ncnc1[C@H]1c2n[nH]c(=O)c3cc(F)cc(c23)N[C@@H]1c1ccc(F)cc1 + CC(Nc1ncnc2nc[nH]c12)c1cc2cccc(Cl)c2c(=O)n1-c1ccccc1 only.
(A) 115

---

System: 935938-334-R-J1-PDC spheroids with HUVEC/MSC, viability
Test: Anticancer human tumor 935938-334-R-J1-PDC cell line growth inhibition [PI3K];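 further: compound exposure lasted seven days before viability was read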;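 on viability, T/C: percent of vehicle DMSO treated spheroid viability so 100% = untreated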
Settings: second compound 10 µM; first compound 0.000316 µM; stronger effect = lower value
viability, T/C overview
Give just the number in %; leave the unit off.

# compound, measure, observed
measured = [
    ("Cn1ncnc1[C@H]1c2n[nH]c(=O)c3cc(F)cc(c23)N[C@@H]1c1ccc(F)cc1 + CC(Nc1ncnc2nc[nH]c12)c1cc2cccc(Cl)c2c(=O)n1-c1ccccc1", "viability, T/C", 62.7),
    ("CC(=O)c1c(C)c2cnc(Nc3ccc(N4CCNCC4)cn3)nc2n(C2CCCC2)c1=O + Cc1nc(NC(=O)N2CCCC2C(N)=O)sc1-c1ccnc(C(C)(C)C(F)(F)F)c1", "viability, T/C", 39.5),
    ("CC(C)n1nc(-c2ccc3oc(N)nc3c2)c2c(N)ncnc21 + CC(Nc1ncnc2nc[nH]c12)c1cc2cccc(Cl)c2c(=O)n1-c1ccccc1", "viability, T/C", 72.7),
    ("CC(C)n1nc(-c2ccc3oc(N)nc3c2)c2c(N)ncnc21 + Cc1nc(NC(=O)N2CCCC2C(N)=O)sc1-c1ccnc(C(C)(C)C(F)(F)F)c1", "viability, T/C", 35.5),
]

(Q) Answer with the recorded viability, T/C of Cn1ncnc1[C@H]1c2n[nH]c(=O)c3cc(F)cc(c23)N[C@@H]1c1ccc(F)cc1 + Cc1nc(NC(=O)N2CCCC2C(N)=O)sc1-c1ccnc(C(C)(C)C(F)(F)F)c1 only.
(A) 39

(Q) Answer with the recorded viability, T/C of CC(=O)c1c(C)c2cnc(Nc3ccc(N4CCNCC4)cn3)nc2n(C2CCCC2)c1=O + CC(Nc1ncnc2nc[nH]c12)c1cc2cccc(Cl)c2c(=O)n1-c1ccccc1 only.
(A) 87.1

---

pIC50 overview
Test system: 935938-334-R-J1-PDC spheroids with HUVEC/MSC, viability
Test: Anticancer human tumor 935938-334-R-J1-PDC cell line growth inhibition [PI3K];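 further: compound exposure lasted seven days before viability was read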
Conditions: curve of first compound; second compound 1 µM
Would you please state pIC50, meaning minus log10 of the concentration in mol/L, as a bare number?

# molecule, target-or-test-system, pIC50
rows = [
    ("C#Cc1c(F)ccc2cc(O)cc(-c3ncc4c(N5CC6CCC(C5)N6)nc(OCC56CCCN5CC(F)C6)nc4c3F)c12 (stereo not drawn) + Cc1nc(NC(=O)N2CCCC2C(N)=O)sc1-c1ccnc(C(C)(C)C(F)(F)F)c1", "935938-334-R-J1-PDC spheroids with HUVEC/MSC, viability", 6.28),
]

(Q) Answer with the recorded pIC50 of C#Cc1c(F)ccc2cc(O)cc(-c3ncc4c(N5CC6CCC(C5)N6)nc(OCC56CCCN5CC(F)C6)nc4c3F)c12 (stereo not drawn) + CC(Nc1ncnc2nc[nH]c12)c1cc2cccc(Cl)c2c(=O)n1-c1ccccc1 only.
(A) 5.55

---

System: 935938-334-R-J1-PDC spheroids with HUVEC/MSC, viability
Assay: Anticancer human tumor 935938-334-R-J1-PDC cell line growth inhibition [PI3K];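 further: compound exposure lasted seven days before viability was read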;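 on viability, T/C: percent of vehicle DMSO treated spheroid viability so 100% = untreated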
Details: second compound 1 µM; first compound 0.01 µM; stronger effect = lower value
measure: viability, T/C

A selection of reference data follows.
# compound, viability, T/C
rows = [
    ("CCN1CCN(Cc2ccc(Nc3ncc(F)c(-c4cc(F)c5nc(C)n(C(C)C)c5c4)n3)nc2)CC1 + CC(Nc1ccc2c(c1)OCCn1cc(N3C(=O)OCC3C(F)F)nc1-2)C(N)=O", "38%"),
    ("CC(C)n1nc(-c2ccc3oc(N)nc3c2)c2c(N)ncnc21 + CC(Nc1ncnc2nc[nH]c12)c1cc2cccc(Cl)c2c(=O)n1-c1ccccc1", "84%"),
]

// switching to the query compound
(Q) Answer with the recorded viability, T/C of Cn1ncnc1[C@H]1c2n[nH]c(=O)c3cc(F)cc(c23)N[C@@H]1c1ccc(F)cc1 + CC(Nc1ncnc2nc[nH]c12)c1cc2cccc(Cl)c2c(=O)n1-c1ccccc1 only.
(A) 48.2%

---

System: 935938-334-R-J1-PDC spheroids with HUVEC/MSC, viability
Assay: Anticancer human tumor 935938-334-R-J1-PDC cell line growth inhibition [PI3K];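 further: compound exposure lasted seven days before viability was read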;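 on viability, T/C: percent of vehicle DMSO treated spheroid viability so 100% = untreated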
Settings: second compound 10 µM; first compound 0.00316 µM; stronger effect = lower value
measure: viability, T/C

# compound, observed
data = [
    ("CC(C)n1nc(-c2ccc3oc(N)nc3c2)c2c(N)ncnc21 + CC(Nc1ncnc2nc[nH]c12)c1cc2cccc(Cl)c2c(=O)n1-c1ccccc1", "61.5%"),
    ("CC(C)n1nc(-c2ccc3oc(N)nc3c2)c2c(N)ncnc21 + Cc1nc(NC(=O)N2CCCC2C(N)=O)sc1-c1ccnc(C(C)(C)C(F)(F)F)c1", "61.5%"),
]

// switching to the query compound
(Q) Answer with the recorded viability, T/C of CCN1CCN(Cc2ccc(Nc3ncc(F)c(-c4cc(F)c5nc(C)n(C(C)C)c5c4)n3)nc2)CC1 + CC(Nc1ncnc2nc[nH]c12)c1cc2cccc(Cl)c2c(=O)n1-c1ccccc1 only.
(A) 59.3%

---

Tested on: 935938-334-R-J1-PDC spheroids with HUVEC/MSC, viability
Assay: Anticancer human tumor 935938-334-R-J1-PDC cell line growth inhibition [PI3K];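 further: compound exposure lasted seven days before viability was read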
Conditions: curve of first compound; second compound 0.1 µM
pIC50: −log10 of the molar value.
measure: pIC50

A selection of reference data follows.
# compound, pIC50
records = [
    ("CC(C)n1nc(-c2ccc3oc(N)nc3c2)c2c(N)ncnc21 + COc1c(OCCCN2CCOCC2)ccc2c3n(c(=NC(=O)c4cnc(N)nc4)nc12)CCN3", "> 9.50"),
    ("CC(C)NCC(C(=O)N1CCN(c2ncnc3c2C(C)CC3O)CC1)c1ccc(Cl)cc1 (stereo unspecified) + Cc1nc(NC(=O)N2CCCC2C(N)=O)sc1-c1ccnc(C(C)(C)C(F)(F)F)c1", "< 5.00"),
    ("CC1(C)CCC(Nc2ncc(C(F)(F)F)c(-c3c[nH]c4c(P(C)(C)=O)c(C#N)ccc34)n2)CN1 (stereo unspecified) + COc1c(OCCCN2CCOCC2)ccc2c3n(c(=NC(=O)c4cnc(N)nc4)nc12)CCN3", "> 7.50"),
    ("C=CC(=O)N1CCN(c2nc(=O)n(-c3c(C)ccnc3C(C)C)c3nc(-c4c(O)cccc4F)c(F)cc23)C(C)C1 (stereo unspecified) + Cc1nc(NC(=O)N2CCCC2C(N)=O)sc1-c1ccnc(C(C)(C)C(F)(F)F)c1", "< 5.00"),
    ("CC1(C)CCC(Nc2ncc(C(F)(F)F)c(-c3c[nH]c4c(P(C)(C)=O)c(C#N)ccc34)n2)CN1 (stereo unspecified) + Cc1nc(NC(=O)N2CCCC2C(N)=O)sc1-c1ccnc(C(C)(C)C(F)(F)F)c1", "> 7.50"),
]

(Q) Answer with the recorded pIC50 of Cn1ncnc1[C@H]1c2n[nH]c(=O)c3cc(F)cc(c23)N[C@@H]1c1ccc(F)cc1 + CC(Nc1ccc2c(c1)OCCn1cc(N3C(=O)OCC3C(F)F)nc1-2)C(N)=O only.
(A) < 7.00
